- Test details: saluretic efficiency test in rats: elimination of water, sodium, chloride and potassium in 6 h urine after oral dosing
- Format: in vivo
- Setup conditions: Rattus norvegicus; rats, oral, 40 μmol/kg body wt.; deviation from control mean plus twice the standard deviation; 6 h urine; read-out: Mean percentage variation in the elimination of H2O

{"Compound": "COc1cc(C)c(C(O)(c2ccccc2)C(C)N2CCCC2)cc1C(C)(C)C (centres unmarked)", "change in vivo at 40 µmol/kg / %": 41}
{"Compound": "COc1c(C)cc(C(O)(c2cc(Cl)cc(C)c2OC)C(C)N(C)C(C)(C)C)cc1C (centres unmarked)", "change in vivo at 40 µmol/kg / %": 59.2}
{"Compound": "COc1ccc(C(O)(c2cc(C(C)C)c(OC)c(C(C)C)c2)C(C)N2CCCCC2)cc1 (centres unmarked)", "change in vivo at 40 µmol/kg / %": 40.8}
{"Compound": "COc1cc(C)c(C(O)(c2ccccc2)C(C)N2CCCCC2)cc1C(C)C (centres unmarked)", "change in vivo at 40 µmol/kg / %": 28.9}
{"Compound": "CCOc1c(C(C)C)cc(C(O)(c2ccc(OC)cc2)C(C)N2CCCCC2)cc1C(C)C (centres unmarked)", "change in vivo at 40 µmol/kg / %": 41.3}
